# Test system: NCI-H292
# MEASUREMENT DESCRIPTION: 3 day proliferation assay, B-Raf V600E mutant cancer cell line
# Format: cell-based
# MEASUREMENT PARAMETERS: Homo sapiens, NCI-H292, Lung, BRAF T119S, read-out: Mean gIC50
pIC50: −log10 of the molar value.
MEASURED ENDPOINT: pIC50

IN: Short answer please: pIC50, NCI-H292, entry CC(C)(C)c1nc(-c2cccc(NS(=O)(=O)c3c(F)cccc3F)c2F)c(-c2ccnc(N)n2)s1 [Example 58a]
OUT: ≤ 6.00

----------
# ASSAYED TARGET: BRAFV600E full-length (amino acids 2-766) (Homo sapiens, UniProt P15056, V600E)
# Construct: His6-tagged BRAFV600E full-length (amino acids 2-766); His6; made in house; host or cells: baculovirus expression system (insect cells)
# Sequence (P15056 2-766 V600E): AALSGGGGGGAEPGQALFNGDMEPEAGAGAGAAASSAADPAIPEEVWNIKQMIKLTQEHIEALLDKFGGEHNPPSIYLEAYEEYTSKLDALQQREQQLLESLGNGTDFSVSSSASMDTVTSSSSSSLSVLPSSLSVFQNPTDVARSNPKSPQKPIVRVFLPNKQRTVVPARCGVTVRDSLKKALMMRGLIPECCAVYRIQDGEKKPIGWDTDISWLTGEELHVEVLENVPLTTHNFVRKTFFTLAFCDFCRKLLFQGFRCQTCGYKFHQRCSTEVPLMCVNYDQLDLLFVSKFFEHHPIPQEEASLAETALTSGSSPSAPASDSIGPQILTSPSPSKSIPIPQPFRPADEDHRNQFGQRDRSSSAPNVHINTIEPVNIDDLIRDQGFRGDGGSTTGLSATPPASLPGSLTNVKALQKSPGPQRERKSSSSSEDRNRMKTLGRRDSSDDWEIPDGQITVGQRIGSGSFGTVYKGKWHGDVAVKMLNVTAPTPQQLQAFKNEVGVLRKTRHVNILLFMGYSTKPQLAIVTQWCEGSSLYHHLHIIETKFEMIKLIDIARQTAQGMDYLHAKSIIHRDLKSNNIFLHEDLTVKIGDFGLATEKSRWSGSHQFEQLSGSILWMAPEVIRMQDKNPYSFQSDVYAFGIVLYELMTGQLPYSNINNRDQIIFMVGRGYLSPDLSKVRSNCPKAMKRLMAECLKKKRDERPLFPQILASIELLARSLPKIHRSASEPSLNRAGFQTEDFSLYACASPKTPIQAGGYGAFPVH
# MEASUREMENT DESCRIPTION: B-Raf Accelerated MEK ATPase assay (BRAMA)
# Assay type: biochemical
# MEASUREMENT PARAMETERS: B-Raf pIC50, Table 1b; later runs, average pIC50 for the one or more runs, categorized
Documented IC50 across a set of compounds

Some compounds with recorded IC50:
Nc1nccc(-c2sc(C3CCOCC3)nc2-c2ccc(F)c(NS(=O)(=O)c3cc(F)ccc3F)c2)n1 31.6 to 1000 nM
CC(C)CNc1nccc(-c2sc(C(C)C)nc2-c2cccc(NS(=O)(=O)c3cccnc3)c2F)n1 ≤ 3.16 nM
C[C@@H](O)CNc1nccc(-c2sc(C3CCOCC3)nc2-c2cccc(NS(=O)(=O)c3ccoc3)c2F)n1 ≤ 3.16 nM
CC(C)c1nc(-c2ccc(F)c(NS(=O)(=O)c3c(F)cccc3F)c2)c(-c2ccnc(NCCOCCO)n2)s1 31.6 to 1000 nM
CC(C)c1nc(-c2ccc(F)c(NS(=O)(=O)c3c(F)cccc3F)c2)c(-c2ccnc(NCCCN3CCOCC3)n2)s1 31.6 to 1000 nM
CC(C)c1nc(-c2cccc(NS(=O)(=O)c3cccc(F)c3)c2)c(-c2ccnc(NCC(=O)O)n2)s1 31.6 to 1000 nM

IN: Which IC50 is listed for "CS(=O)(=O)CCNc1nccc(-c2sc(N3CCOCC3)nc2-c2cccc(NS(=O)(=O)c3c(F)cccc3F)c2F)n1" ?
OUT: ≤ 3.16 nM

IN: Which IC50 is listed for "O=S(=O)(Nc1cccc(-c2nc(C3CCOCC3)sc2-c2ccncn2)c1Cl)c1cc(F)ccc1F" ?
OUT: ≤ 3.16 nM
